assay: Compound was tested for inhibition of [3H]dihydroalprenolol radioligand binding to Beta-1 adrenergic receptor in dog heart.
Give measured IC50 for each item. Keep answers brief.
Numbers only, in nM.

**Q:** Item under review: CC(C)(C)NC[C@H](O)CON=C1c2ccccc2-c2ccccc21 . Reported IC50?
**A:** 29

Provide IC50 for all items below, preserving their order.
1. CC(C)(C)NC[C@@H](O)CON=C1c2ccccc2-c2ccccc21
2. Cc1ccc(OCC(O)CNC(C)C)c2c1CCC2 (centres undefined)
3. CC(C)(C)NCC(O)CON=C1c2ccccc2-c2ccccc21 (centres undefined)

**A:**
[43, 186, 38]
